- testProtocol: acid dissociation constant (pKa) in acetonitrile
- Format: physicochemical
Consider the following molecules; for each one, report its ΔpKa.
Lab note: jot down the number only; don't add units.

Record summary for CCCCCCCCCCCCCCCCCCN.O=S(=O)(NS(=O)(=O)C(F)(F)F)C(F)(F)F : reported ΔpKa = 17.9

Record summary for C1CN=C2NCCCN2C1.O=S(=O)(O)C(F)(F)C(F)(F)C(F)(F)C(F)(F)C(F)(F)C(F)(F)C(F)(F)F [Comparative ionic liquid 9, TBD pentadecafluoro sulfonic acid salt, reference compound] : reported ΔpKa = 24.8

Record summary for CCCCCCCCCCCCCCCCCCN1CCCN2CCCN=C12.O=S1(=O)NS(=O)(=O)C(F)(F)C(F)(F)C1(F)F : reported ΔpKa = 26.4

Record summary for C1CCC2=NCCCN2CC1.O=S(=O)(O)C(F)(F)C(F)(F)C(F)(F)C(F)(F)C(F)(F)C(F)(F)C(F)(F)C(F)(F)F [Comparative ionic liquid 8, reference compound] : reported ΔpKa = 23.6

Record summary for CCCCCCCCCCCCCCCCCCN1CCCN2CCCN=C12.O=S(=O)(O)C(F)(F)C(F)(F)C(F)(F)C(F)(F)C(F)(F)C(F)(F)C(F)(F)C(F)(F)F : reported ΔpKa = 24.8

Record summary for CCCCCCCCCCCCCCCCCCC1CCCCN2CCCN=C12.O=S(=O)(O)C(F)(F)C(F)(F)C(F)(F)C(F)(F)C(F)(F)C(F)(F)C(F)(F)C(F)(F)F (stereo not drawn) : reported ΔpKa = 23.6

Record summary for CCCCCCCCCCCCCCCCCCC1CCCCN2CCCN=C12.O=S1(=O)NS(=O)(=O)C(F)(F)C(F)(F)C1(F)F (stereo not drawn) : reported ΔpKa = 25.2

Record summary for CCCCCCCCCCCCCCCCCCN.O=S(=O)(NS(=O)(=O)C(F)(F)C(F)(F)C(F)(F)C(F)(F)F)C(F)(F)C(F)(F)C(F)(F)C(F)(F)F : reported ΔpKa = 18.3

Record summary for CCCCCCCCCCCCCCCCCCN.O=S1(=O)NS(=O)(=O)C(F)(F)C(F)(F)C1(F)F : reported ΔpKa = 19.2

Hello, the source for this data is patent US10047091B2, in case you need it.
